Target: T1, recombinant His-tagged full-length ERG (UniProt P11308 1-479, biotinylated with NHS-PEG4 biotin for the OctetRED assays)
T1 construct: mature; Baculovirus expression in SF9 cells, Ni-NTA purified; also called wild-type ERG; wtERG; not shown: His tag
T1 sequence (looked up): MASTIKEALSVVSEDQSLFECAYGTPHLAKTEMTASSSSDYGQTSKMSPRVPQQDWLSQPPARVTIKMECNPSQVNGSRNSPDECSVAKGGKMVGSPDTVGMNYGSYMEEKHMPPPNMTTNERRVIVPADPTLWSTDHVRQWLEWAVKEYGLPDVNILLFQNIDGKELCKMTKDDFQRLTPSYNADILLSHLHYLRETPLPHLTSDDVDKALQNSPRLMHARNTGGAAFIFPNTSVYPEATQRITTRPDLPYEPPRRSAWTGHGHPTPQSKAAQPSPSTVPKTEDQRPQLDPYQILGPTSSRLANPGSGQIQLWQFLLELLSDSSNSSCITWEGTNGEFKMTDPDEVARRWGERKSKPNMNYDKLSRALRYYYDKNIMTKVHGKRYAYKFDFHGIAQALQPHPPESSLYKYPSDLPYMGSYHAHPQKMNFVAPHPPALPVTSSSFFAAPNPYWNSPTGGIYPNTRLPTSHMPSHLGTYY
Experiment: OctetRED; Kd table of synthetic peptides on ERG
measured parameter: Kd (µM)
Write the value in µM as a bare number.

Field Kd (entry H-LPPYLF-NH2 (also called H2N-LPPYLF-NH2) [6LF-N] ) reads 4.88

Given item Ac-PPYLF-NH2 (also called Ac-PPYLF-NH2) [5PF-A] , the value recorded as its Kd is 9.44

For Ac-PPYLFT-NH2 (also called Ac-PPYLFT-NH2) [6PT-A] the binder record lists Kd as 3.64
